target: Kras and SOS1 (biotin-tagged human Kras loaded with GDP, His-tagged human SOS1) (Homo sapiens, UniProt P01116, G12D); construct: made in house; host or cells: E. coli (stated for Kras only); test: Protein-protein interaction inhibition between Kras and SOS1 (KrasGl2D-SOS PPI) using AlphaScreen; assay type: binding; details: AlphaScreen; biotin-tagged human Kras loaded with GDP, His-tagged human SOS1; read-out: KRAS G12D-SOS PPI IC50
Sequence (P01116 1-188 isoform P01116-2 G12D): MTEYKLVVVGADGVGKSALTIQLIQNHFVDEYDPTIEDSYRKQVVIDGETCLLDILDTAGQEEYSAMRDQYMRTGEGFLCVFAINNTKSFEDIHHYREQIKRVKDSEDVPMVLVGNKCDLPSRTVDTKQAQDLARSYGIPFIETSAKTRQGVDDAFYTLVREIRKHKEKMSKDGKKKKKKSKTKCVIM
Starred links: 1 amine or outer side, 2 acyl side, 3 side chain; linkers in the order of their positions; H or OH if unused. Positions of bridges follow the written chain, without caps; N, C: chain ends. Non-standard residues stand in square brackets, D forms with d. Residues, ends and D or L forms follow the SMILES beside them. *: point of attachment. hPhe(3-Cl-4-CF3) = N[C@@H](CCc1ccc(C(F)(F)F)c(Cl)c1)C(=O)O; NMeDab(N,N-(CH2CF2CH2)) = CN[C@@H](CCN1CC(F)(F)C1)C(=O)O; hPhe(3-F,4-CF3) = N[C@@H](CCc1ccc(C(F)(F)F)c(F)c1)C(=O)O; NMePhe(4-CF3) = CN[C@@H](Cc1ccc(C(F)(F)F)cc1)C(=O)O; NMe3Pal(6-Me) = CN[C@@H](Cc1ccc(C)nc1)C(=O)O; NMePhe(4-Me) = CN[C@@H](Cc1ccc(C)cc1)C(=O)O; NMedβ3hAla = C[C@H](CC(=O)[*:2])N(C)[*:1]; NMeGly(cPent) = CN[C@H](C(=O)O)C1CCCC1; NMe3Pal = CN[C@@H](Cc1cccnc1)C(=O)O; NMeCha = CN[C@@H](CC1CCCCC1)C(=O)O; NMeChg = CN[C@H](C(=O)O)C1CCCCC1; NMeI = CC[C@H](C)[C@H](NC)C(=O)O; NMeD = CN[C@@H](CC(=O)O)C(=O)O; NMeL = CN[C@@H](CC(C)C)C(=O)O; NEtAla = CCN[C@@H](C)C(=O)O; NMeV = CN[C@H](C(=O)O)C(C)C; NMeAbu = CC[C@H](NC)C(=O)O; NMeA = CN[C@@H](C)C(=O)O; NMeAib = CNC(C)(C)C(=O)O; Piperidide = C1CCN(*)CC1; Pyrrolidide = C1CCN(*)C1; Ac5c = NC1(C(=O)O)CCCC1; Aze = O=C(O)[C@@H]1CCN1; Sar = CNCC(=O)O
Assign log10(IC50) to each entry below.
Field: value | Transform: log10 | Quantity: IC50 | Unit: nM

# log10(IC50) (molecule: CC[C@H](C)[C@@H]1NC(=O)[C@H](CC(C)C)N(C)C(=O)C[C@@H](C(=O)N2CCCCC2)N(C)C(=O)[C@H](C2CCCCC2)N(C)C(=O)C2(CCCC2)NC(=O)[C@H](Cc2ccc(C)nc2)N(C)C(=O)[C@H](CCc2ccc(C(F)(F)F)c(Cl)c2)NC(=O)CN(C)C(=O)[C@H](CC2CCCCC2)N(C)C(=O)[C@@H]2CCN2C(=O)CN(C)C1=O [Compound 786] ([NMeL]I[Sar][Aze][NMeCha][Sar][hPhe(3-Cl-4-CF3)][NMe3Pal(6-Me)][Ac5c][NMeChg][NMeD]-Piperidide; lactam N-11) ) is 0.78

# log10(IC50) (molecule: CC[C@H](C)[C@@H]1NC(=O)[C@H](CC(C)C)N(C)C(=O)C[C@@H](C(=O)N(C)C)N(C)C(=O)[C@H]([C@@H](C)CC)N(C)C(=O)[C@H](C(C)C)NC(=O)[C@@H](C)NC(=O)[C@H](CCc2ccc(C(F)(F)F)c(Cl)c2)NC(=O)CN(C)C(=O)[C@H](Cc2ccc(C)cc2)N(C)C(=O)[C@@H]2CCN2C(=O)[C@H](C)N(C)C1=O [Compound 915] ([NMeL]I[NMeA][Aze][NMePhe(4-Me)][Sar][hPhe(3-Cl-4-CF3)][dA]V[NMeI][NMeD]-NMe2; lactam N-11) ) is 1.60

# log10(IC50) (molecule: CC[C@H](C)[C@@H]1NC(=O)[C@H](C)N(CC)C(=O)C[C@@H](C)N(C)C(=O)[C@H](C(C)C)N(C)C(=O)C2(CCCC2)NC(=O)[C@@H]2CCCN2C(=O)[C@H](CCc2ccc(C(F)(F)F)c(Cl)c2)NC(=O)CN(C)C(=O)[C@H](CC2CCCCC2)N(C)C(=O)CN(C)C(=O)CN(C)C1=O [Compound 264] (cyclo([Ac5c][NMeV][NMedβ3hAla][NEtAla]I[Sar][Sar][NMeCha][Sar][hPhe(3-Cl-4-CF3)]P)) ) is 0.65

# log10(IC50) (molecule: CC[C@H](C)[C@@H]1NC(=O)[C@H](C)N(C)C(=O)C[C@@H](C(=O)N2CCCCC2)N(C)C(=O)[C@H](C(C)C)N(C)C(=O)[C@H](CC(C)C)NC(=O)[C@H](CCN2CC(F)(F)C2)N(C)C(=O)[C@H](CCc2ccc(C(F)(F)F)c(Cl)c2)NC(=O)CN(C)C(=O)[C@H](CC2CCCCC2)N(C)C(=O)CN(C)C(=O)CN(C)C1=O [Compound 331] ([NMeA]I[Sar][Sar][NMeCha][Sar][hPhe(3-Cl-4-CF3)][NMeDab(N,N-(CH2CF2CH2))]L[NMeV][NMeD]-Piperidide; lactam N-11) ) is 1.48

# log10(IC50) (molecule: CC[C@H](C)[C@@H]1NC(=O)[C@H](CC)N(C)C(=O)C[C@@H](C(=O)N2CCCC2)N(C)C(=O)[C@H](C2CCCCC2)N(C)C(=O)C2(CCCC2)NC(=O)[C@@H]2CCCN2C(=O)[C@H](CCc2ccc(C(F)(F)F)c(Cl)c2)NC(=O)CN(C)C(=O)[C@H](CC2CCCCC2)N(C)C(=O)CN(C)C(=O)CN(C)C1=O [Compound 1958] ([NMeAbu]I[Sar][Sar][NMeCha][Sar][hPhe(3-Cl-4-CF3)]P[Ac5c][NMeChg][NMeD]-Pyrrolidide; lactam N-11) ) is -0.35

# log10(IC50) (molecule: CC[C@H](C)[C@@H]1NC(=O)[C@H](CC(C)C)N(C)C(=O)C[C@@H](C)N(C)C(=O)[C@H](CC(C)C)NC(=O)C(C)(C)N(C)C(=O)[C@H](CC(C)C)NC(=O)[C@H](CCc2ccc(C(F)(F)F)c(F)c2)NC(=O)CN(C)C(=O)[C@H](CC2CCCCC2)N(C)C(=O)[C@@H]2CCN2C(=O)[C@H](C)N(C)C1=O [Compound 686] (cyclo([Aze][NMeCha][Sar][hPhe(3-F,4-CF3)]L[NMeAib]L[NMedβ3hAla][NMeL]I[NMeA])) ) is 2.23

# log10(IC50) (molecule: CC[C@H](C)[C@@H]1NC(=O)[C@H](CC(C)C)N(C)C(=O)C[C@@H](C(=O)N2CCCC2)N(C)C(=O)[C@H]([C@@H](C)CC)N(C)C(=O)C2(CCCC2)NC(=O)[C@@H]2CCCN2C(=O)[C@H](CCc2ccc(C(F)(F)F)c(Cl)c2)NC(=O)CN(C)C(=O)[C@H](CC2CCCCC2)N(C)C(=O)CN(C)C(=O)CN(C)C1=O [Compound 1662] ([NMeL]I[Sar][Sar][NMeCha][Sar][hPhe(3-Cl-4-CF3)]P[Ac5c][NMeI][NMeD]-Pyrrolidide; lactam N-11) ) is -0.19

# log10(IC50) (molecule: CC[C@H](C)[C@@H]1NC(=O)[C@H](CC(C)C)N(C)C(=O)C[C@@H](C(=O)N(C)C)N(C)C(=O)[C@H](C2CCCC2)N(C)C(=O)C2(CCCC2)NC(=O)[C@H](Cc2cccnc2)N(C)C(=O)[C@H](CCc2ccc(C(F)(F)F)c(Cl)c2)NC(=O)CN(C)C(=O)[C@H](CC2CCCCC2)N(C)C(=O)[C@@H]2CCN2C(=O)[C@H](C)N(C)C1=O [Compound 1071] ([NMeL]I[NMeA][Aze][NMeCha][Sar][hPhe(3-Cl-4-CF3)][NMe3Pal][Ac5c][NMeGly(cPent)][NMeD]-NMe2; lactam N-11) ) is 0.11

# log10(IC50) (molecule: CC[C@H](C)[C@@H]1NC(=O)[C@H](CC(C)C)N(C)C(=O)C[C@@H](C)N(C)C(=O)[C@H](C(C)C)N(C)C(=O)C2(CCCC2)NC(=O)[C@@H]2CCCN2C(=O)[C@H](CCc2ccc(C(F)(F)F)c(Cl)c2)NC(=O)CN(C)C(=O)[C@H](Cc2ccc(C(F)(F)F)cc2)N(C)C(=O)CN(C)C(=O)CN(C)C1=O [Compound 1617] (cyclo([Ac5c][NMeV][NMedβ3hAla][NMeL]I[Sar][Sar][NMePhe(4-CF3)][Sar][hPhe(3-Cl-4-CF3)]P)) ) is 0.43
